# System: Fer (mouse)
# Method Summary: phosphorylation enrichment, bacterial display (enrichment ratio); higher = better substrate or ligand; peptides without Tyr show the background;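 further: 11-residue human phosphosite peptides and single-mutation variants displayed on the E. coli surface, counted by deep sequencing, each peptide's frequency after selection divided by its frequency in the unselected input library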;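 further: frequency after pTyr selection over input frequency; kinase dosed for 20-30% of maximal phosphorylation in three min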
Quick reference: phosphorylation enrichment of the listed items.
Outcome Measure: phosphorylation enrichment

[
  {
    "Sequence Data": "LEKISYVYMKR [SSX7_Y48]",
    "Outcome Measure": "phosphorylation enrichment",
    "Number": 0.875
  },
  {
    "Sequence Data": "SKAYAYVHFDS [PABPC5_Y149_G146A]",
    "Outcome Measure": "phosphorylation enrichment",
    "Number": 0.477
  },
  {
    "Sequence Data": "ARSMEYLAEQK [MST1R_Y1198]",
    "Outcome Measure": "phosphorylation enrichment",
    "Number": 0.403
  },
  {
    "Sequence Data": "LGMSQYFRLFN [CPT2_Y217_D213G]",
    "Outcome Measure": "phosphorylation enrichment",
    "Number": 0.499
  },
  {
    "Sequence Data": "ECKLLYSQKEG [PTPN11_Y263_R265Q]",
    "Outcome Measure": "phosphorylation enrichment",
    "Number": 0.607
  },
  {
    "Sequence Data": "LNTFHYAGVSA [POLR2A_Y1109]",
    "Outcome Measure": "phosphorylation enrichment",
    "Number": 0.469
  },
  {
    "Sequence Data": "MSRDVYSIDYY [NTRK2_Y702_T704I]",
    "Outcome Measure": "phosphorylation enrichment",
    "Number": 1.22
  },
  {
    "Sequence Data": "KKKKQYKDKYL [CASK_Y708]",
    "Outcome Measure": "phosphorylation enrichment",
    "Number": 0.587
  },
  {
    "Sequence Data": "VSVVDYVEPSP [TXNRD2_Y70_A66S]",
    "Outcome Measure": "phosphorylation enrichment",
    "Number": 0.521
  },
  {
    "Sequence Data": "ESAAIYNPVIF [RHO_Y301_K296E_YF]",
    "Outcome Measure": "phosphorylation enrichment",
    "Number": 17.2
  },
  {
    "Sequence Data": "PARLEYCENEK [IRS1_Y46_Y47C]",
    "Outcome Measure": "phosphorylation enrichment",
    "Number": 0.816
  },
  {
    "Sequence Data": "NACGLYHTMNG [GATA5_Y216_K218T]",
    "Outcome Measure": "phosphorylation enrichment",
    "Number": 0.643
  },
  {
    "Sequence Data": "NTFENYWPFFQ [GATM_Y103_K102N_YF]",
    "Outcome Measure": "phosphorylation enrichment",
    "Number": 0.894
  },
  {
    "Sequence Data": "RALCHYYKLNI [ETV6_Y401_R399C]",
    "Outcome Measure": "phosphorylation enrichment",
    "Number": 1.29
  }
]

---

Quick reference: phosphorylation enrichment of the listed items.
# Tgt: EPHB1 (UniProt P54762)
# Sequence (P54762 whole entry, looked up): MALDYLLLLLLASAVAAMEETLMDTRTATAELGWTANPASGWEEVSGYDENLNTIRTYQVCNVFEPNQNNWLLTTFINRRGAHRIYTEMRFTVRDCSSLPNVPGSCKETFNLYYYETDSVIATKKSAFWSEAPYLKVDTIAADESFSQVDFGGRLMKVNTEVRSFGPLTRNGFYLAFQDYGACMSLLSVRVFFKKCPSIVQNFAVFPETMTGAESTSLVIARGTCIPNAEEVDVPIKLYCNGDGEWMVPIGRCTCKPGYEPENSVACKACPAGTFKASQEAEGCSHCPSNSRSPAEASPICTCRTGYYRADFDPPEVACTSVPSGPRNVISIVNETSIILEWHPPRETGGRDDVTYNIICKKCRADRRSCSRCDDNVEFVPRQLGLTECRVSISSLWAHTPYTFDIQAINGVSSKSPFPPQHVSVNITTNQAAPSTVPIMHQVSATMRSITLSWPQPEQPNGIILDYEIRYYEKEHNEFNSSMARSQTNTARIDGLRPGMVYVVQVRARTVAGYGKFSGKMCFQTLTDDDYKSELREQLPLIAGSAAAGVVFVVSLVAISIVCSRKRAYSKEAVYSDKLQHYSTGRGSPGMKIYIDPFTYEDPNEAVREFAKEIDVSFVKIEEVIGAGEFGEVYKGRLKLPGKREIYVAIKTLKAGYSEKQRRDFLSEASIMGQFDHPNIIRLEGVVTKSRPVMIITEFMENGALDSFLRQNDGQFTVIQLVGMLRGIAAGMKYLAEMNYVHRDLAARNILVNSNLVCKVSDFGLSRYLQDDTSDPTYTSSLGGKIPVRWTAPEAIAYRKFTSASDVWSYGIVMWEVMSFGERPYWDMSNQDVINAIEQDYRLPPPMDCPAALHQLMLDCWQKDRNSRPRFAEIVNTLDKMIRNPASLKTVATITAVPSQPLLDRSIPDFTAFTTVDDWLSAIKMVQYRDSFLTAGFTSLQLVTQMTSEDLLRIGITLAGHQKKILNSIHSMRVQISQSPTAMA
# Method Summary: phosphorylation enrichment, bacterial display (enrichment ratio); higher = better substrate or ligand; peptides without Tyr show the background

[
  {
    "Sequence Data": "THEVRYISAGQ [SLCO4A1_Y77_V78I]",
    "Tgt": "EPHB1 (UniProt P54762)",
    "phosphorylation enrichment": 0.426
  },
  {
    "Sequence Data": "IGVDSYSVCKR [RPS6KA3_Y433_G431D]",
    "Tgt": "EPHB1 (UniProt P54762)",
    "phosphorylation enrichment": 0.402
  },
  {
    "Sequence Data": "LEKISYVYMKR [SSX7_Y48]",
    "Tgt": "EPHB1 (UniProt P54762)",
    "phosphorylation enrichment": 1.23
  },
  {
    "Sequence Data": "LHQSTYQCYDV [SLC7A14_Y693_R695C]",
    "Tgt": "EPHB1 (UniProt P54762)",
    "phosphorylation enrichment": 2.12
  },
  {
    "Sequence Data": "QFRFIYMAVQH [PTPN11_Y515_YF]",
    "Tgt": "EPHB1 (UniProt P54762)",
    "phosphorylation enrichment": 1.06
  },
  {
    "Sequence Data": "IPGMEYLVSII [TNC_Y1775_V1773M]",
    "Tgt": "EPHB1 (UniProt P54762)",
    "phosphorylation enrichment": 0.65
  },
  {
    "Sequence Data": "PLEGEYFTLQI [TP53_Y327_D324E]",
    "Tgt": "EPHB1 (UniProt P54762)",
    "phosphorylation enrichment": 4.24
  },
  {
    "Sequence Data": "ALAHKHHGGGG [HBB_Y146_Y146H]",
    "Tgt": "EPHB1 (UniProt P54762)",
    "phosphorylation enrichment": 0.372
  },
  {
    "Sequence Data": "IHADIYRWFNI [MARS1_Y344]",
    "Tgt": "EPHB1 (UniProt P54762)",
    "phosphorylation enrichment": 0.716
  },
  {
    "Sequence Data": "ILTLKYPIEHG [ACTA1_Y71]",
    "Tgt": "EPHB1 (UniProt P54762)",
    "phosphorylation enrichment": 0.476
  },
  {
    "Sequence Data": "TSESSYYKSLN [NGEF_Y288_A286S]",
    "Tgt": "EPHB1 (UniProt P54762)",
    "phosphorylation enrichment": 0.55
  },
  {
    "Sequence Data": "TTKGSYSLFVR [HCK_Y180_S183Y_YF]",
    "Tgt": "EPHB1 (UniProt P54762)",
    "phosphorylation enrichment": 0.351
  },
  {
    "Sequence Data": "PLLEFYWDIFT [CDAN1_Y713_R714W_YF]",
    "Tgt": "EPHB1 (UniProt P54762)",
    "phosphorylation enrichment": 0.833
  },
  {
    "Sequence Data": "ICRWVYPLTPE [EIF2B5_Y319_R315C]",
    "Tgt": "EPHB1 (UniProt P54762)",
    "phosphorylation enrichment": 0.5
  }
]

// provenance: the supplement of paper PMC10065799
